Here we gather Ki data for Translocator protein (Homo sapiens, UniProt P30536) reported by several publications.
Respond with the bare value in nM.

// known answers, use as guide
COc1ccccc1CN(C(C)=O)c1cnccc1Oc1ccccc1: 2.5
CCOc1ccc(F)cc1NC(=O)c1cc(F)ccc1NS(=O)(=O)C1CC1: 71
CCOc1ccc(F)cc1NC(=O)c1ccccc1NS(=O)(=O)C1CC1: 271

Write Ki of `CC(=O)N(Cc1ccc(OCc2ccccc2)cc1)c1cc(C)cc(C)c1` ; system used: Translocator protein (Homo sapiens, UniProt P30536)
Sequence (P30536 whole entry): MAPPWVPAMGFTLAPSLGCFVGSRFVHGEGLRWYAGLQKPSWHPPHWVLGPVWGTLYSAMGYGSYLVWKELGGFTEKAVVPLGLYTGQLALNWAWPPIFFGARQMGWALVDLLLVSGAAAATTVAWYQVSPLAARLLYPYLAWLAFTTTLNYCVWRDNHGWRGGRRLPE
377

Please indicate recorded Ki of `CCN(CC)C(=O)Cn1c(-c2ccc(OC)cc2)nc2c(C)cc(C)cc21` measured with Translocator protein (Homo sapiens, UniProt P30536).
208

Report Ki under test system Translocator protein (Homo sapiens, UniProt P30536) for `CC(=O)N(Cc1ccccc1C(=O)O[11CH3])c1ccccc1Oc1ccccc1` .
1.4

Tell me Ki of `Cc1cc(I)cc(-c2nc(NC(=O)c3cccnc3)sc2-c2ccncc2)c1` when tested on Translocator protein (Homo sapiens, UniProt P30536).
1330

Provide Ki, system Translocator protein (Homo sapiens, UniProt P30536), entry `OC[C@@]12C[C@@H]1[C@@H](n1cnc3c(NC(C4CCC4)C4CCC4)nc(Cl)nc31)[C@H](O)[C@@H]2O`
2930

Look up and report Ki, with Translocator protein (Homo sapiens, UniProt P30536) as system, for CC1COCc2sc(NC(=S)Nc3ccccc3)c(C(=O)OC(C)(C)C)c21 (stereo unspecified)
4000

Print Translocator protein (Homo sapiens, UniProt P30536) Ki for `CCN(CC)C(=O)[C@H]1CCCc2c1c1c(OC)cccc1n2CC[18F]` .
2.4

// fetch Ki for `CCN(CC)C(=O)CN(Cc1ccc(OC(C)C)cc1)c1cc(C)cc(C)c1` ; system: Translocator protein (Homo sapiens, UniProt P30536)
2240

Give reported Ki for `C#CCN(C)C(=O)c1cc2cc(NS(C)(=O)=O)ccc2n1Cc1ccc(OC)cc1` (Translocator protein (Homo sapiens, UniProt P30536))
1500

Recall the reported Ki of `COc1ccc(OC)c(CN(C(C)=O)c2cc(F)ccc2Oc2ccccc2)c1` on Translocator protein (Homo sapiens, UniProt P30536) and write it down.
0.2

GET Ki where system = Translocator protein (Homo sapiens, UniProt P30536) and item = `O[C@@H]1[C@H](O)[C@@H]2C[C@@H]2[C@H]1n1cnc2c(NC(C3CCC3)C3CCC3)nc(Cl)nc21`
2380

Consider the compound `CC(C)(C)Cc1c(C#Cc2ccccc2F)sc(N)c1C(=O)c1ccc(Cl)cc1` tested on Translocator protein (Homo sapiens, UniProt P30536); state its Ki.
560

Report value: Ki, system: Translocator protein (Homo sapiens, UniProt P30536), compound: `CCN(CC)C(=O)CN(Cc1ccc(OC)cc1)c1cc(C)cc(C)c1`
1200

State the measured Ki (Translocator protein (Homo sapiens, UniProt P30536)) of `Cn1cnc2c(NCCc3ccccc3)nc(C#Cc3ccc(Cl)s3)nc21`
3170

Lab note: Translocator protein (Homo sapiens, UniProt P30536) assay, enter Ki for `CC(=O)N(Cc1ccccc1)c1cc(C)cc(C)c1` here
275

Name the recorded Ki of `COc1ccc(CN(C(C)=O)c2cc(C)cc(C)c2)cc1` , assay system Translocator protein (Homo sapiens, UniProt P30536).
500

###

Several reports have described Ki for Translocator protein (Homo sapiens, UniProt P30536); a selection of those results is presented here.

C[C@@H](NC(=S)Nc1sc2c(c1C(=O)OC(C)(C)C)CCOC2)c1ccccc1: > 10000 nM
CCCN1CCN(c2ccc3c(c2)C(N(C)C(=O)OCc2ccccc2)CCC3)CC1 (stereo not drawn): 8330 nM
CN(Cc1ccccc1)C(=O)CN1c2ccccc2NC(=O)c2ccccc21: 76.8 nM
C#CCN(C)C(=O)c1cc2cc(NC(C)=O)ccc2n1Cc1ccc(OC)cc1: 2070 nM
O[C@H]1[C@H](n2cnc3c(NC(C4CCC4)C4CCC4)ncnc32)[C@H]2C[C@@]2(CCl)[C@H]1O: 2020 nM

Give a short answer stating reported Ki for `CCN(CC)C(=O)c1nc2ccccc2n1Cc1ccc(OC)nc1` .
> 10000 nM

Please report the measured Ki for `CC(=O)N(Cc1ccc(OC(C)C)cc1)c1cc(C)cc(C)c1`
823 nM

Return Ki for the following compound: `CCCN(CCC)C(=O)Cc1c(-c2ccc(Cl)cc2)[nH]c2ccc(Cl)cc12`
3.9 nM
